pIC50 for Serine/threonine-protein kinase mTOR (Homo sapiens, UniProt P42345), merged from several publications.
The quantity pIC50 is defined as the negative base-10 logarithm of the molar concentration.

The following compounds have reported results that may help.
>>> measurement("Cc1nn(C)cc1-n1c(=O)n(C)c2cnc3ccc(-c4ccccc4)cc3c21")
6.67
>>> measurement("COc1ccc(-c2ccc3ncc4c(c3c2)n(-c2ccc(N3CCNCC3)c(C(F)(F)F)c2)c(=O)n4C)cn1")
8.85
>>> measurement("CSc1ccc(-c2ccc3ncc4ccc(=O)n(-c5cccc(C(F)(F)F)c5)c4c3n2)cn1")
8.30
>>> measurement("CNc1ncc(-c2ccc3ncc4c(c3c2)n(-c2cn(C)nc2C)c(=O)n4C)cc1COC")
7.82

Short answer for `CCOc1ccc(-c2ccc3ncc4c(c3c2)n(-c2cn(CC(=O)N(C)C)nc2C)c(=O)n4C)cn1` : pIC50 was 7.96

Short answer for `COc1ncc(-c2ccc3nccc(-c4ccc(CN(C)C)cc4)c3c2)cc1NS(=O)(=O)c1ccc(F)cc1F` : pIC50 was 8.42
